Listed compounds paired with reported pKi
- Assay System: human ALK5 (Homo sapiens (Human), UniProt P36897)
- Sequence (P36897 80-503 limits assumed): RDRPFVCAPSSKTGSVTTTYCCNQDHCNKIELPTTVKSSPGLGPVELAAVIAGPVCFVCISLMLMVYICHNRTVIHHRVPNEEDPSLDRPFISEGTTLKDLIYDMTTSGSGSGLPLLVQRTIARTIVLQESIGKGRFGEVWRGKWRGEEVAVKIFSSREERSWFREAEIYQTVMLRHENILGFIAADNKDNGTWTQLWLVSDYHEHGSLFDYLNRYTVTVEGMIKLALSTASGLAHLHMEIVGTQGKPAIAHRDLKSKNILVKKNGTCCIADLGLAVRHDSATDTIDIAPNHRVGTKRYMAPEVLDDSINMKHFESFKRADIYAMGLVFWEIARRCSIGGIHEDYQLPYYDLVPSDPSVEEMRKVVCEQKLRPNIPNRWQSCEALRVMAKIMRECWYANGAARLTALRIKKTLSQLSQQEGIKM
- Method: ADP-GLO Kinases assay, ALK5 enzymatic activity
- Assay type: biochemical
- Reported Conditions: purified recombinant human ALK5 2.6 nM, TGFβ1 peptide 94.5 μM, ATP 0.83 μM, 120 min, 25° C.; pIC50 converted to pKi using the Cheng-Prusoff equation
pKi: −log10 of the molar value.

Completed entries (count: 6):
smiles_notation=Cc1cccc(-c2nc3n(c2-c2ccc(F)c(NC(=O)CCN4CCN(CC(F)(F)F)CC4)c2)CCN3)n1 measurement_name=pKi measured_value="8.10 to 8.90"
smiles_notation=Cc1cccc(-c2nc3n(c2-c2ccc(F)c(NCC4CCN(C)CC4)c2)CCN3)n1 measurement_name=pKi measured_value="8.10 to 8.90"
smiles_notation=Cc1cccc(-c2nc3n(c2-c2ccc(F)c(NC(=O)CCN4CCN(C)CC4)c2)CCN3)n1 measurement_name=pKi measured_value="8.10 to 8.90"
smiles_notation=Cc1cccc(-c2nc3n(c2-c2ccc(F)c(NC(=O)CCCN4CCN(C)CC4)c2)CCN3)n1 measurement_name=pKi measured_value="8.10 to 8.90"
smiles_notation=Cc1cccc(-c2nc3n(c2-c2ccc(F)c(NC4CCN(C(C)C)CC4)c2)CCN3)n1 measurement_name=pKi measured_value="7.50 to 8.00"
smiles_notation=Cc1cccc(-c2nc3n(c2-c2ccc(F)c(NC(=O)CCN(C)C)c2)CCN3)n1 measurement_name=pKi measured_value="≥ 9.00"

// recorded pKi for Cc1cccc(-c2nc3n(c2-c2ccc(F)c(NC(=O)CN4CCN(C)CC4)c2)CCN3)n1 : 7.50 to 8.00

Value of measured pKi for the entry Cc1cccc(-c2nc3n(c2-c2ccc(F)c(NC(=O)CCCN4CCCCC4)c2)CCN3)n1 : 8.10 to 8.90
